Hey, just so you know, these numbers are from patent US6872852B2.

# reported IC50; entries follow
System: PC-3 cells
test-description: NCI 60-cell line screen
Type: cell-based, human
experimental-parameters: determined by NCI
// note: answer is a bare numeric in µM

{"columns": ["mol", "experimental-system", "test-result"],
 "data": [
  ["c1ccc2c(CNCCCCNCc3cccc4ccccc34)cccc2c1", "PC-3 cells", 11.2]
]}

--- query ---
IC50 lookup needed for c1ccc(N(c2ccccc2)c2ccc(CNCCCCNCc3ccc(N(c4ccccc4)c4ccccc4)cc3)cc2)cc1 , thanks.
0.81
